Each entry below carries its recorded log10 half-life at 1 μM.
Test: Liver microsomes stability
Type: in vitro ADME, human
Test Conditions: human, human liver microsomes, 1 μM compound, 1 mg/mL human liver microsomes, 1 mM NADPH; read-out: T½ of HLM
Metric: log10 half-life at 1 μM (log10 of the value in min)

{"columns": ["Compound", "log10 half-life at 1 μM"],
 "data": [
  ["[2H]C([2H])([2H])Oc1cc(C(=O)Nc2cc3c(cc2Oc2cc(C)cc(C)c2)C(=O)N[C@@H](CC(=O)N(C)C)C(=O)N3)c(Br)c(OC([2H])([2H])[2H])c1OC([2H])([2H])[2H]", 2.52],
  ["CCN(CC)C(=O)C[C@H]1C(=O)Nc2cc(NC(=O)c3cc(OC)c(OC)c(OC)c3Br)c(Oc3cc(C)cc(C)c3)cc2C(=O)N1C [a, reference compound]", 1.04],
  ["[2H]C([2H])([2H])Oc1c(OC)cc(C(=O)Nc2cc3c(cc2Oc2cc(C)cc(C)c2)C(=O)N[C@@H](CC(=O)N(CC)CC)C(=O)N3)c(Cl)c1OC", 1.34],
  ["[2H]C([2H])([2H])c1c(OC)cc(C(=O)Nc2cc3c(cc2Oc2cc(C)cc(C)c2)C(=O)N[C@@H](CC(=O)N(CC)CC)C(=O)N3)c(Cl)c1OC", 1.58],
  ["[2H]c1c(Oc2cc3c(cc2NC(=O)c2cc(OC)c(OC)c(OC)c2Cl)NC(=O)[C@H](CC(=O)N(CC)CC)NC3=O)c([2H])c(C([2H])([2H])[2H])c([2H])c1C([2H])([2H])[2H]", 1.37]
]}
